Origin of values: patent US20250355001A1

- testedSystem: T1, hT40 (T441, SEQ ID NO: 1) (Homo sapiens, UniProt P10636)
- T1 construct: Full length tau (hT40)
- T1 sequence (P10636 1-441 isoform P10636-8): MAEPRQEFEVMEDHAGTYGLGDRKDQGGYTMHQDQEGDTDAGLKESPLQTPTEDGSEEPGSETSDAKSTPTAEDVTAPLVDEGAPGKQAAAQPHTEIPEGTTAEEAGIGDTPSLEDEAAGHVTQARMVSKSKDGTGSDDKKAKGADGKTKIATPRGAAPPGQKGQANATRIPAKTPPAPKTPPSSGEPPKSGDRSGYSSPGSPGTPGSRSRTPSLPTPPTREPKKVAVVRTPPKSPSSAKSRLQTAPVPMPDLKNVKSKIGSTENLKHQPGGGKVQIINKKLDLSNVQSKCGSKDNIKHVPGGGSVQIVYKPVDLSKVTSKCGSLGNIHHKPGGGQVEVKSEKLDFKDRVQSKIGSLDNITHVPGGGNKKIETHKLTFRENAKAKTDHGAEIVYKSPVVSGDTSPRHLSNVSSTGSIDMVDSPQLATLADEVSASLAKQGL
- assayComment: Biacore X100 SPR kinetics of scAbs for hT40
- Assay type: binding
- cond: Table 23; scAb captured, T441 (hT40) analyte; 1:1 model

molecule	unitAbbrev	ka
CE3: anti-tau core clone, Table 10; SEQ ID NO: 367 (protein, CE3 amino acid sequence) scFv: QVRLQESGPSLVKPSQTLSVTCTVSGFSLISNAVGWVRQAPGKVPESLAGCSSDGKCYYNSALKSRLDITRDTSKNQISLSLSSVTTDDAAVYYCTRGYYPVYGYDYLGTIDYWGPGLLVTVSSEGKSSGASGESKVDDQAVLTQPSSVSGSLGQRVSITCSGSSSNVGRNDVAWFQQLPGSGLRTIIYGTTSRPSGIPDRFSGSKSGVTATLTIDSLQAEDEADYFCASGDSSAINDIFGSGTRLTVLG	M⁻¹ s⁻¹	174500
